- Assay Procedure: HSE-luciferase reporter activators – cell-based (AID 1611)
- Run Conditions: human cells, HSE-luciferase heat shock reporter; stronger effect = higher value
I'd appreciate it if you could supply fold change values for the items below.
Answers are plain numbers.

| Compound | fold change |
| --- | --- |
| CCCCOc1ccc(CC(=O)NO)cc1 | 0.79 |

Give me fold change for each of these compounds, listed below.
1. COc1ccc2cc([C@H](C)C(=O)O)ccc2c1
2. CN[C@@H]1[C@H](OC2[C@H](O[C@H]3[C@H](O)[C@@H](O)[C@H](N=C(N)N)[C@@H](O)[C@@H]3N=C(N)N)O[C@@H](C)[C@]2(O)C=O)O[C@@H](CO)[C@H](O)[C@H]1O (stereo not given in full)
3. O=C1C[C@@H](c2ccc(O)cc2)Oc2cc(O)cc(O)c21
4. Nc1ccc(S(=O)(=O)Nc2cnc3ccccc3n2)cc1

Response line:
1: 0.71; 2: 1.17; 3: 0.8; 4: 1.17

Give me fold change for each of these compounds, listed below.
1. CC[C@H](C)C(=O)O[C@H]1CCC=C2C=C[C@H](C)C(CCC3C[C@@H](O)CC(=O)O3)[C@H]21 (stereo not given in full)
2. CN(Cc1cnc2nc(N)nc(N)c2n1)c1ccc(C(=O)N[C@@H](CCC(=O)O)C(=O)O)cc1
3. NNCCc1ccccc1
4. CCN(CC)CCCC(C)Nc1c2ccc(Cl)cc2nc2ccc(OC)cc12 (stereo not given)

Response line:
[1.15, 0.91, 0.93, 0.97]

Prompt line: Data request, read-out fold change, for CN1C(C(=O)Nc2ccccn2)=C(O)c2sccc2S1(=O)=O
Response line: 0.84

Numbers sourced from PubChem BioAssay AID1611.
